Molecular target: isolated recombinant JAK1 kinase domain (Homo sapiens (Human))
Experiment: JAK1 enzyme assay (Caliper LabChip, peptide phosphorylation)
Assay type: biochemical
Conditions: isolated recombinant JAK1 kinase domain, 25 μM ATP
pKi: −log10 of the molar value.
ASSAY_METRIC: pKi

> print(dat)
                                   compound                               target.desc  measured.value
1  O=C(Nc1cn(CC(=O)N2C[C@H]3CN(CC4CC4)C[C@H]3C2)nc1-c1cc(Cl)ccc1OC(F)F)c1cnn2cccnc12 [Example 6]  isolated recombinant JAK1 kinase domain (Homo sapiens (Human))            9.15
2  Nc1nn2cccnc2c1C(=O)Nc1cn(CC(=O)N2CCC(O)(c3ccccc3)CC2)nc1-c1cc(Cl)ccc1OC(F)F [Example 286]  isolated recombinant JAK1 kinase domain (Homo sapiens (Human))            9.27
3  O=C(Nc1cn(CC(=O)N2C[C@H]3CN(CC4CCCCC4)C[C@H]3C2)nc1-c1cc(Cl)ccc1OC(F)F)c1cnn2cccnc12 [Example 52]  isolated recombinant JAK1 kinase domain (Homo sapiens (Human))            9.19
4  O=C(Nc1sc(N2CC(N3CCCCC3)C2)nc1-c1cc(Cl)ccc1OC(F)F)c1cnn2cccnc12 [Example 195]  isolated recombinant JAK1 kinase domain (Homo sapiens (Human))            8.87
5  O=C(Nc1cn(CC(=O)N2CC3(CCNCC3)C2)nc1-c1cc(Cl)ccc1OC(F)F)c1cnn2cccnc12 [Example 217]  isolated recombinant JAK1 kinase domain (Homo sapiens (Human))            8.97
6  CC1(CN2C[C@@H]3CN(C(=O)Cn4cc(NC(=O)c5cnn6cccnc56)c(-c5cc(Cl)ccc5OC(F)F)n4)C[C@@H]3C2)COC1 [Example 39]  isolated recombinant JAK1 kinase domain (Homo sapiens (Human))            9.26
7  CN(CCC#N)C1CCC(=CCn2cc(NC(=O)c3cnn4cccnc34)c(-c3cc(Cl)ccc3OC(F)F)n2)CC1 (stereo not shown) [Example 420]  isolated recombinant JAK1 kinase domain (Homo sapiens (Human))            9.24

---

Molecular target: isolated recombinant JAK1 kinase domain (Homo sapiens (Human), UniProt P23458)
Sequence (P23458 875-1153): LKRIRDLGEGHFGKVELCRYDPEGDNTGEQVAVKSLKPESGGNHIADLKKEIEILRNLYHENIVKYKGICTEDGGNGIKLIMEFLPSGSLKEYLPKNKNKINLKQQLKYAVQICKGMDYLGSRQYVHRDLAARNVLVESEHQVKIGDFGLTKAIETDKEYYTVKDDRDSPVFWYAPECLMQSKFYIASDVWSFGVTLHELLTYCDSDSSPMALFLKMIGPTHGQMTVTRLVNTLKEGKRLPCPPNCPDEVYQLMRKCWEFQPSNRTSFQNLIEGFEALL
Test: JAK1 enzyme assay (Caliper LabChip, peptide phosphorylation)
Assay type: biochemical
Settings: isolated recombinant JAK1 kinase domain, 25 μM ATP
ASSAY_METRIC: Ki (nM)

> print(dat)
                                 smiles.text  assay.metric  measured.value
 1  Nc1nn2cccnc2c1C(=O)Nc1cn(C2CCN(CCCC(=O)N3CCOCC3)CC2)nc1-c1cc(Cl)ccc1OC(F)F            Ki            0.55
 2  CN(CC(C)(C)C#N)C1CCN(C(=O)Cn2cc(NC(=O)c3cnn4cccnc34)c(-c3cc(Cl)ccc3OC(F)F)n2)CC1            Ki            0.24
 3  CNC(=O)CCCN1CCC(n2cc(NC(=O)c3cnn4cccnc34)c(-c3cc(Cl)ccc3OC(F)F)n2)CC1            Ki            1.47
 4  O=C(Nc1cn(CCN[C@@H]2CCOC2)nc1-c1cc(Cl)ccc1OC(F)F)c1cnn2cccnc12            Ki            0.83
 5  CN(C)C1CCN(C(=O)Cn2cc(NC(=O)c3c(N)nn4cccnc34)c(-c3cc(Cl)ccc3OC(F)F)n2)CC1            Ki            0.78
 6  CN1CCN(C(=O)Cn2cc(NC(=O)c3cnn4cccnc34)c(-c3cc(Cl)ccc3OC(F)F)n2)CC1(C)C            Ki            0.93
 7  CN1CCN(c2nc(-c3cc(Cl)ccc3OC(F)F)c(NC(=O)c3cnn4cccnc34)s2)CC1            Ki             0.8
 8  O=C(Nc1cn(CC(=O)N2CCC(N3CCOCC3)CC2)nc1-c1cc(Cl)ccc1OC(F)F)c1cnn2cccnc12            Ki            0.38
 9  CN1CCN(C2CCN(C(=O)Cn3cc(NC(=O)c4cnn5cccnc45)c(-c4cc(Cl)ccc4OC(F)F)n3)CC2)C(=O)C1            Ki            0.36
10  O=C(Nc1cn(CC(=O)N2C[C@H]3CN(CCCN4C(=O)Cc5ccccc54)C[C@H]3C2)nc1-c1cc(Cl)ccc1OC(F)F)c1cnn2cccnc12            Ki            0.76
11  CS(=O)(=O)CCCN1C[C@@H]2CN(C(=O)Cn3cc(NC(=O)c4cnn5cccnc45)c(-c4cc(Cl)ccc4OC(F)F)n3)C[C@@H]2C1            Ki            0.46
12  Nc1nn2cccnc2c1C(=O)Nc1cn(C2CCN(CCCC(=O)N3CCCCC3)CC2)nc1-c1cc(Cl)ccc1OC(F)F            Ki            0.76
13  O=C(Nc1sc(N2CCN(CC3CC3)CC2)nc1-c1cc(Cl)ccc1OC(F)F)c1cnn2cccnc12            Ki            1.01
14  CN(Cc1ccc(Br)cc1)C1CCN(C(=O)Cn2cc(NC(=O)c3cnn4cccnc34)c(-c3cc(Cl)ccc3OC(F)F)n2)CC1            Ki            1.21
15  Nc1nn2cccnc2c1C(=O)Nc1cn(CC(=O)N2CCC(CO)CC2)nc1-c1cc(Cl)ccc1OC(F)F            Ki            0.24
16  O=C(Nc1cn(CC(=O)N2CCN(CCOCCO)CC2)nc1-c1cc(Cl)ccc1OC(F)F)c1cnn2cccnc12            Ki            0.54
17  CN(C)CC1CCN(C(=O)Cn2cc(NC(=O)c3cnn4cccnc34)c(-c3cc(Cl)ccc3OC(F)F)n2)CC1            Ki            0.67
18  O=C(Nc1cn(CC(=O)N2CCC(N(Cc3ccccc3)CC(F)(F)F)CC2)nc1-c1cc(Cl)ccc1OC(F)F)c1cnn2cccnc12            Ki            3.76
19  CNC(=O)CCN1CCC(n2cc(NC(=O)c3cnn4cccnc34)c(-c3cc(Cl)ccc3OC(F)F)n2)CC1            Ki            3.02
20  O=C1CN(C2CCN(C(=O)Cn3cc(NC(=O)c4cnn5cccnc45)c(-c4cc(Cl)ccc4OC(F)F)n3)CC2)CCN1            Ki            0.36
21  CN(C)CCOC1CCN(C(=O)Cn2cc(NC(=O)c3c(N)nn4cccnc34)c(-c3cc(Cl)ccc3OC(F)F)n2)CC1            Ki            0.53
22  O=C(Nc1cn(CCNCc2ccncc2)nc1-c1cc(Cl)ccc1OC(F)F)c1cnn2cccnc12            Ki            0.72
23  Nc1nn2cccnc2c1C(=O)Nc1cn(C2CCN(CCOCc3ccccc3)CC2)nc1-c1cc(Cl)ccc1OC(F)F            Ki            1.25
24  CN(C)C(=O)CNC1CCN(C(=O)Cn2cc(NC(=O)c3cnn4cccnc34)c(-c3cc(Cl)ccc3OC(F)F)n2)CC1            Ki            0.75
25  O=C(CCCN1CCC(n2cc(NC(=O)c3cnn4cccnc34)c(-c3cc(Cl)ccc3OC(F)F)n2)CC1)NC1COC1            Ki            1.55
26  CN(CC1Oc2ccccc2O1)C1CCN(C(=O)Cn2cc(NC(=O)c3cnn4cccnc34)c(-c3cc(Cl)ccc3OC(F)F)n2)CC1            Ki            0.45
27  CS(=O)(=O)N1CCC(CN2C[C@@H]3CN(C(=O)Cn4cc(NC(=O)c5cnn6cccnc56)c(-c5cc(Cl)ccc5OC(F)F)n4)C[C@@H]3C2)CC1            Ki            0.47
